subject of test: mouse TrkB extracellular domain fused to the transmembrane and cytoplasmic domains of human TrkB, expressed … (mouse; human, UniProt Q16620 431-822, limits assumed)
Sequence (Q16620 other isoform, or with tags, fused parts or gaps limits assumed, form in doubt): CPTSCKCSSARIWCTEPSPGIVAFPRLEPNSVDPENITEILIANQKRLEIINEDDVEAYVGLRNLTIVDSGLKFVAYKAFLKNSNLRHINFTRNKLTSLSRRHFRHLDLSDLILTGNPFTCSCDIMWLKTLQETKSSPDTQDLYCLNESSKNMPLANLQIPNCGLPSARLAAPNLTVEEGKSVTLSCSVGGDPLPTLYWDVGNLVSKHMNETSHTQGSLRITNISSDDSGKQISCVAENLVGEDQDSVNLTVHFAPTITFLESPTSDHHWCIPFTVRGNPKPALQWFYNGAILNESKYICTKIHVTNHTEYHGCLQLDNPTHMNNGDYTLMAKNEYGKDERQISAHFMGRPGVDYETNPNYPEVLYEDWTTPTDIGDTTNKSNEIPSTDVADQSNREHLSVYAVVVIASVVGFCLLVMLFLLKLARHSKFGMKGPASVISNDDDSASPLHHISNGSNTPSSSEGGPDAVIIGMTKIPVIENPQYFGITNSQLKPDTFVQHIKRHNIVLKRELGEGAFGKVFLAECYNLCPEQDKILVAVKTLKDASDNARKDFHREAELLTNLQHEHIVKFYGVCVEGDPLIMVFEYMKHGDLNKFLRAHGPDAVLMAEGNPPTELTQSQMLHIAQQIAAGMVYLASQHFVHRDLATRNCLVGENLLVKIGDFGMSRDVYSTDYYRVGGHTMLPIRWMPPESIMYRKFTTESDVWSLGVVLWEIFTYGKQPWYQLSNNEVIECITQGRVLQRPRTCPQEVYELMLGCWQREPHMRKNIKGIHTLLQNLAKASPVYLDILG
measurement notes: cell-based or functional assay
measured quantity: Activation (%), SRE-luciferase, No BDNF
A bare number is not enough; add the unit after it.

M2aM14173N (antibody, mouse IgG2a, kappa, V domains shown, Anti-mouse TrkB antibody from hybridoma, mouse IgG2a Fc; also called surrogate anti-mouse TrkB antibody) VH: NVSLVESGGGSVKPGGSLQLSCAASGFTFSSSAMSWIRQTPEMRLEWVATISDRGSYTYYPDSVEGRFTISRDNAKNILYLQMSHLMSEDTAMYYCARGKGEKAYYTAFFAYWGQGSLVTVSA VL: DIQMTQSPASLSASVGETVTITCRASENIYSYLAWYQQKPGKSPHLLVHNAETLAEGVPSRFSGSGSGPQFSLKINSLQPGDSGTYYCQHHYSSPWTFGGGTKLEIKR : 94%
M2aM14178N (antibody, mouse IgG2a, V domains shown, Anti-mouse TrkB antibody from hybridoma, mouse IgG2a Fc; also called surrogate anti-mouse TrkB antibody) VH: EVQLVESGGGLVKPGGSLKLSCTASGFTFSSYAMSWVRQTPEKRLEWVANISDGGTYTYYPDNIKGRFTISRDNAKNNLYLQMSHLESEDTAMYYCIRGDVYYVRFAYWGQGTLVTVSA VL: QAVVTQESALTTSPGETVTLTCRSSTGAVTSSNHANWVQEKPDHLFTGLIGGTNNRAPGVPARFSGSLIGDKAALTITGAQTEDEAIYFCALWHSNHWVFGGGTKLTVLG : 76%
H1M8037C (antibody, mouse IgG1, kappa, V domains shown, captured by anti-mFc in SPR; also called Comparator; comparator anti-TrkB monoclonal antibody) VH: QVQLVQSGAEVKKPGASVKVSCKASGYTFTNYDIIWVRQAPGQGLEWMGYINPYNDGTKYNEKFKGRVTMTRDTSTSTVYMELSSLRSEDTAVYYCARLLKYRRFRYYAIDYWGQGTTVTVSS VL: DIQMTQSPSSLSASVGDRVTITCRTSENVYSNLAWYQQKPGKAPKLLIYAASNLQSGVPSRFSGSGSGTDYTFTISSLQPEDIATYYCQHFWGSPFTFGQGTKLEIKR : 85%

Consider M2aM14179N (antibody, mouse IgG2a, kappa, V domains shown, Anti-mouse TrkB antibody from hybridoma, mouse IgG2a Fc; also called surrogate anti-mouse TrkB antibody) VH: EVQLQQSGPELVKPGASVKISCKASGYTLTDYYMNWVKQSHGKSLEWIGDINPNNGGTSYNQKFKGKATLTVDKSSSTAYMELRSLTSEDSAVYYCARGAYYSNYFDYWGQGTTLTVSS VL: DIVMSQSPSSLAVSAGEKVTMSCKSSQSLLNSRTRKNYLAWYQQKPGQSPKLLIYWASTRESGVPDRFTGSGSGTDFTLTISSVQAEDLAVYYCKQSYILFTFGSGTQLEIKR . Its measured Activation (%), SRE-luciferase, No BDNF is 87%
